target: human CD38 (Homo sapiens, UniProt P28907); assay: human recombinant CD38 enzyme assay (hydrolysis of NAD+); details: human recombinant CD38, 0.4 nM enzyme, 62.5 μM NAD+; read-out: hCD38 BioChem IC50
Sequence (P28907 whole entry): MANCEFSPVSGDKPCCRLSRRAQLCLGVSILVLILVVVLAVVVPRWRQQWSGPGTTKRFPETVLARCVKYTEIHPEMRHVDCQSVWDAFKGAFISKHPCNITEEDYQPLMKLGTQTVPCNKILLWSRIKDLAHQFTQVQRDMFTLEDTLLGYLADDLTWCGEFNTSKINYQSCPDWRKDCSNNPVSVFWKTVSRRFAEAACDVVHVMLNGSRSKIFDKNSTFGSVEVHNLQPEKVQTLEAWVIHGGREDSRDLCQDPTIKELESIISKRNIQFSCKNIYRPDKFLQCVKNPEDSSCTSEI
MEASURE_NAME: IC50 (nM)

Worked set:
{"GIVEN_SMILES": "COc1ncc(-c2cncn2C)nc1C(=O)Nc1ccc(C(F)(F)F)nc1", "MEASURED_VALUE": 5.1}
{"GIVEN_SMILES": "Cn1cncc1-c1ccnc(C(=O)N[C@H]2C[C@H](Oc3ccccc3)C2)n1", "MEASURED_VALUE": 146}
{"GIVEN_SMILES": "COc1cc(-c2cncn2C)nc(C(=O)Nc2ccc(C(F)F)nc2)n1", "MEASURED_VALUE": 2.6}
{"GIVEN_SMILES": "COCCO[C@H]1CC[C@H](NC(=O)c2cc(C3CCOCC3)nc(-c3cncn3C)n2)C1", "MEASURED_VALUE": 20.8}
{"GIVEN_SMILES": "CO[C@H]1CC[C@H](NC(=O)c2ccnc(-c3cncn3C)n2)CC1", "MEASURED_VALUE": 12}
{"GIVEN_SMILES": "CO[C@H]1CC[C@H](NC(=O)c2nc(C)cc(-n3ccnc3)n2)CC1", "MEASURED_VALUE": 24.8}

I: Cn1cncc1-c1ccnc(C(=O)N[C@H]2C[C@H](C(C)(C)O)C2)n1
II: COCCO[C@H]1CC[C@H](NC(=O)c2nc(C)cc(-c3cncn3C)n2)CC1
(Q) Between I and II , which one shows the larger IC50 value? Give the label of your selection.
(A) I

a: Cn1cncc1-c1ccnc(C(=O)N[C@H]2C[C@H](c3ccc(F)cc3)C2)n1
b: O=C(Nc1ccnc(C(F)F)c1)c1cccc(-n2ccnc2)n1
c: CO[C@H]1CC[C@H](NC(=O)c2nc(-c3cncn3C)ncc2C)CC1
d: O=C(Nc1ccc(C(F)F)nc1)c1cc(C(F)(F)F)nc(-c2cncs2)n1
e: COc1cc(-c2cncn2C)nc(C(=O)Nc2ccc(C(F)(F)F)nc2)n1
(Q) Rank the items in ascending order with respect to IC50. Dear reader, please state the labels in the requested order.
(A) e, b, a, c, d
(e: 2.4 nM, b: 6 nM, a: 28.8 nM, c: 41.4 nM, d: 507 nM)

I: Cn1cncc1-c1cccc(C(=O)Nc2cccnc2)n1
II: O=C(Nc1ccc(C(F)F)nc1)c1ccnc(-n2ccnc2)n1
III: O=C(N[C@H]1CC[C@H](OC(F)(F)F)CC1)c1nccc(-n2ccnc2)n1
(Q) Rank the items in ascending order with respect to IC50. Dear reader, please state the labels in the requested order.
(A) II, I, III

----------
Target: human CD38 (Homo sapiens)
Experiment: human recombinant CD38 enzyme assay (hydrolysis of NAD+)
Details: human recombinant CD38, 0.4 nM enzyme, 62.5 μM NAD+; read-out: hCD38 BioChem IC50
Procedure: Compounds described herein were assayed for their ability to inhibit the hydrolysis of NAD+ by the protein CD38. […] Dose responses were measured using an assay to detect the hydrolysis of NAD+. […] Subsequent detection of remaining NAD+ was determined by first converting NAD+ to NADH using alcohol dehydrogenase, then using the resulting NADH to reduce resazurine to the fluorescent product resorufin. […] The plates were read for fluorescence (Excitation/Emission=540 nm/590 nm) using an EnVision plate reader. […]
pIC50: −log10 of the molar value.
MEASURE_NAME: pIC50

Worked set:
{"GIVEN_SMILES": "O=C(NC1(c2ccc(C(F)(F)F)cc2)COC1)c1cccc(-n2ccnc2)n1", "pIC50": 5.66}
{"GIVEN_SMILES": "Cn1cncc1-c1nc(C(=O)N[C@@H]2C[C@@H]3[C@H](C2)C3(F)F)cc(C2CCOCC2)n1", "pIC50": 7.97}
{"GIVEN_SMILES": "O=C(Nc1ccnc(C(F)(F)F)c1)c1cccc(-n2ccnc2)n1", "pIC50": 8.00}

a: Cn1cncc1-c1cnc(N)c(C(=O)Nc2ccc(C(F)(F)F)nc2)n1
b: O=C(Nc1ccccc1)c1cc(-n2ccnc2)ccn1
(Q) Between a and b , which one shows the larger pIC50 value? Give the label of your selection.
(A) a
(a: 8.05, b: 6.50)

----------
target: endogenous CD38 in HL60 cells (Homo sapiens, UniProt P28907); construct: endogenous in cells; test: cellular CD38 assay in HL60 cells (cellular NAD levels); settings: all-trans retinoic acid, 24 hours, read-out: hCD38 HL60 ATRA NAD Cell Diaphorase IC50
Sequence (P28907 whole entry): as above
MEASURE_NAME: IC50 (µM)

a: Cn1cncc1-c1nc(C(=O)N[C@H]2C[C@H](C(C)(C)O)C2)cc(C2CCOCC2)n1 [Compound 283]
b: Cn1cncc1-c1ccnc(C(=O)N[C@H]2CC[C@H](C(F)F)CC2)n1 [Compound 75]
c: Cn1cncc1-c1ccnc(C(=O)N[C@H]2CC[C@H](O)CC2)n1 [Compound 256]
(Q) Arrange these compounds by their IC50, starting with the largest number. Dear reader, please state the labels in the requested order.
(A) a, c, b

----------
target: endogenous CD38 in HL60 cells (Homo sapiens); construct: endogenous in cells; assay: cellular CD38 assay in HL60 cells (cellular NAD levels); conditions: all-trans retinoic acid, 24 hours, read-out: hCD38 HL60 ATRA NAD Cell Diaphorase IC50
pIC50: −log10 of the molar value.
MEASURE_NAME: pIC50

Worked set:
{"COMPOUND": "COc1cc(C(=O)Nc2ccc(C(F)F)nc2)nc(-n2ccnc2)c1 [Compound 187]", "MEASURE_NAME": "pIC50", "MEASURED_VALUE": 6.60}
{"COMPOUND": "CO[C@H]1C[C@H](NC(=O)c2cccc(-n3ccnc3)n2)C1 [Compound 23]", "MEASURE_NAME": "pIC50", "MEASURED_VALUE": 5.41}

P: COCCOc1cc(C(=O)Nc2ccc(C(F)F)nc2)nc(-n2ccnc2)c1 [Compound 244]
Q: Cn1cncc1-c1nccc(C(=O)NC2CC3(C2)CC(F)(F)C3)n1 [Compound 82]
R: COCCO[C@H]1CC[C@H](NC(=O)c2nccc(-c3cncn3C)n2)CC1 [Compound 209]
S: Cn1cncc1-c1nc(C(=O)N[C@H]2CC[C@H](C)CC2)cc(C(F)(F)F)n1 [Compound 153]
(Q) Highest pIC50 first, then in falling order down to the smallest. Dear reader, please state the labels in the requested order.
(A) P, Q, S, R
(P: 6.30, Q: 5.97, S: 5.50, R: 5.07)

a: COCCOc1cc(-c2cncn2C)nc(C(=O)Nc2ccc(C(F)F)nc2)n1 [Compound 224]
b: O=C(NC1CCOC1)c1cccc(-n2ccnc2)n1 (stereo not drawn) [Compound 63]
c: Cn1cncc1-c1ccnc(C(=O)N[C@H]2C[C@@H](c3ccccc3)C2)n1 [Compound 214]
d: Cn1cncc1-c1cccc(C(=O)Nc2ccc(C(F)(F)F)nc2)n1 [Compound 71]
(Q) Rank the items in ascending order with respect to pIC50. Dear reader, please state the labels in the requested order.
(A) c, b, d, a
(c: 5.01, b: 5.23, d: 5.84, a: 6.15)

A: Cn1cncc1-c1cc(C2CC2)nc(C(=O)Nc2ccc(C(F)F)nc2)n1 [Compound 206]
B: O=C(N[C@H]1CC[C@H](O)CC1)c1cccc(-n2ccnc2)n1 [Compound 30]
C: C[C@H]1CC[C@H](NC(=O)c2cncc(-n3ccnc3)n2)CC1 [Compound 102]
D: COCCO[C@H]1CC[C@H](NC(=O)c2cccc(-c3cncn3C)n2)CC1 [Compound 65]
E: O=C(Nc1ccc(C(F)(F)F)nc1)c1nccc(-n2ccnc2)n1 [Compound 72]
(Q) Highest pIC50 first, then in falling order down to the smallest. Dear reader, please state the labels in the requested order.
(A) E, A, C, B, D

a: O=C(N[C@H]1CC[C@H](C(F)F)CC1)c1cccc(-n2ccnc2)n1 [Compound 64]
b: O=C(NC1CC2C(C1)C2(F)F)c1cccc(-n2ccnc2)n1 (stereo not drawn) [Compound 135]
c: COc1cc(-c2cncn2C)nc(C(=O)Nc2ccc(C(F)(F)F)nc2)n1 [Compound 234]
(Q) Rank the items in ascending order with respect to pIC50. Dear reader, please state the labels in the requested order.
(A) a, b, c

----------
target: UniProt P56528; experiment: mouse recombinant CD38 enzyme assay (hydrolysis of NAD+); settings: read-out: mCD38 BioChem IC50
Sequence (P56528 whole entry): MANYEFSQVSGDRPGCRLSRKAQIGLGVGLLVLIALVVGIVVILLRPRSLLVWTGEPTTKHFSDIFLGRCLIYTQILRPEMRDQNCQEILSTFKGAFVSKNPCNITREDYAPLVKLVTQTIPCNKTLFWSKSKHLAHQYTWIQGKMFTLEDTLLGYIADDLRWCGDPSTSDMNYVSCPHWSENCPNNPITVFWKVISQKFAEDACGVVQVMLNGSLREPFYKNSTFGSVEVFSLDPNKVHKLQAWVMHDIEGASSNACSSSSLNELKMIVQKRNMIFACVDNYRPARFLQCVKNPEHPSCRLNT
pIC50: −log10 of the molar value.
MEASURE_NAME: pIC50

{"GIVEN_SMILES": "Cn1cncc1-c1cncc(C(=O)N[C@H]2CC[C@H](C(F)F)CC2)n1", "pIC50": 7.89}
{"GIVEN_SMILES": "COCCO[C@H]1CC[C@H](NC(=O)c2cc(C)nc(-n3ccnc3)n2)CC1", "pIC50": 8.40}
{"GIVEN_SMILES": "COc1cc(C(=O)Nc2ccc(C(F)F)nc2)nc(-n2ccnc2)n1", "pIC50": 8.70}
{"GIVEN_SMILES": "O=C(Nc1ccc(C(F)(F)F)nc1)c1ccnc(-c2cncs2)n1", "pIC50": 6.66}
{"GIVEN_SMILES": "Cn1cncc1-c1nc(C(=O)N[C@H]2CC[C@H](OC(F)F)CC2)cc(C2CCC(F)(F)CC2)n1", "pIC50": 8.68}
{"GIVEN_SMILES": "CO[C@H]1CC[C@H](NC(=O)c2cc(N3CCCC3)cc(-n3ccnc3)n2)CC1", "pIC50": 8.10}

1: Cn1cncc1-c1nc(C(=O)N[C@H]2C[C@H](c3ccccc3)C2)cc(C2CCOCC2)n1
2: O=C(N[C@H]1CC[C@H](C(F)(F)F)CC1)c1ccnc(-n2ccnc2)n1
3: CO[C@H]1CC[C@H](NC(=O)c2cc(C3(O)CCC(F)(F)CC3)nc(-c3cncn3C)n2)CC1
4: O=C(NC1CCS(=O)(=O)CC1)c1cc(C2CC2)nc(-c2cncs2)n1
(Q) Highest pIC50 first, then in falling order down to the smallest. Dear reader, please state the labels in the requested order.
(A) 1, 3, 2, 4

// data source = patent US20230116972A1
